Recorded pKd for the following binders
Target: T1, human CD45 D1-D4 (amino acids 194-578) with C-terminal 8xHis tag (human, UniProt P08575 194-578)
T1 construct: Made in house in expi293 cells; SPR analyte; also called D1-D4 region of human CD45RO
T1 sequence: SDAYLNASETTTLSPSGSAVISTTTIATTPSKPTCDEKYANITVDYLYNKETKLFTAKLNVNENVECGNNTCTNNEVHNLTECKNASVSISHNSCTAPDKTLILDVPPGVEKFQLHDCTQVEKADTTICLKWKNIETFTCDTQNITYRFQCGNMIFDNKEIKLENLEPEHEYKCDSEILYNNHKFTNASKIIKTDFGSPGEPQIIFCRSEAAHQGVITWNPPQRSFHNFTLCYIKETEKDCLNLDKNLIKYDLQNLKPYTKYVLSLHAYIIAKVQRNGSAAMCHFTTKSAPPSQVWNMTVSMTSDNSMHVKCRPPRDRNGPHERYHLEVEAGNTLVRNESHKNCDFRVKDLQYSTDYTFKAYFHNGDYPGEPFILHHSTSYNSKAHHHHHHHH
Experiment: SPR, Biacore T200, single cycle kinetics; VHH monomeric Fc fusion captured on Protein A chip, CD45 D1-D4 as analyte
// scale note: pKd = -log10(conc_M); give the bare number

2C5 VHH monomeric Fc fusion (Fc fusion, Clonotype 6; Construct used for SPR; not shown: monomeric Fc tag) VHH: QVQLQEFGGGLVQAGASLRLSCAASGGTFSYFMGWFRQAPGKEREFVATINRNGGATGYADSVKGRFTISRDNAKNTLYLQMDSVTPEDTAVYYCAAARESSVYYTSTDPAEYGYWGQGTQVTVSS = 8.85
1A10 VHH monomeric Fc fusion (Fc fusion, Clonotype 10; Construct used for SPR; not shown: monomeric Fc tag) VHH: QVQLQAFGGGLVQAGGSLGLSCSASGTIFNLDYMGWYRQALGKQRELVATITSDGRTNYADSVKGRFTIFRDGAKNAILMQMNSLKPEDTAVYYCKAYLSGRSDYWGQGTQVTVSS = 7.49
1G1 VHH monomeric Fc fusion (Fc fusion, Clonotype 7; Construct used for SPR; not shown: monomeric Fc tag) VHH: QVQLQASGGGLVQAGGSLRLSCAASGRTVSSDAMGWFRQAPGKEREFVAAINWNGASTYYGDSAQGRFTISRDNAKNTVYLQMNSLKSEDTAVYYCAASDWVVGGISLMNGAEYKYWGQGTLVTVSS = 7.55
1E4 VHH monomeric Fc fusion (Fc fusion, Clonotype 3; Construct used for SPR; not shown: monomeric Fc tag) VHH: QVQLQESGGGLVQPGGSLRLSCAASGGTFSDYGMGWFRQAPGKEREFVSSISWSGNSVYYAGAVRGRFTISRDNAKNTVYLQMNSLQPEDTAVYYCAASSTWNNNDPTEYEYWGQGTLVTVSS = 6.52
2H7 VHH monomeric Fc fusion (Fc fusion, Clonotype 8; Construct used for SPR; not shown: monomeric Fc tag) VHH: QVQLQESGGGLVQAGGSLRLSCAASGRTFSTHAMGWFRQAPGKEREFVAAIAWSGGSTYYADSVKGRFTISRDISKNTIYLQMNSLKPEDTALYYCAATNGGAWHYHERYFGSWGQGTLVTVSS = 9.06

IN: What does the data say about its pKd? Entry: 2F8 VHH monomeric Fc fusion (Fc fusion, Clonotype 7; Construct used for SPR; not shown: monomeric Fc tag) VHH: QVQLQQFGGGLVQAGGSLRLSCAASGRTFSGYAMGWFRQAPGKEREFVAAINWSGGSTYYADSVKGRYTISRDNAKNTGYLQMNSLKSEDTAVYYCAASDWVVGGISLMNGAEYKYWGQGTLVTVSS
OUT: 7.16
